Biological target: T1, recombinant LILRA3 (human, UniProt Q8N6C8 24-439)
T1 construct: whole entry named; also called LILRA3 ECD; LILA3
T1 sequence (Q8N6C8 24-439 limits assumed): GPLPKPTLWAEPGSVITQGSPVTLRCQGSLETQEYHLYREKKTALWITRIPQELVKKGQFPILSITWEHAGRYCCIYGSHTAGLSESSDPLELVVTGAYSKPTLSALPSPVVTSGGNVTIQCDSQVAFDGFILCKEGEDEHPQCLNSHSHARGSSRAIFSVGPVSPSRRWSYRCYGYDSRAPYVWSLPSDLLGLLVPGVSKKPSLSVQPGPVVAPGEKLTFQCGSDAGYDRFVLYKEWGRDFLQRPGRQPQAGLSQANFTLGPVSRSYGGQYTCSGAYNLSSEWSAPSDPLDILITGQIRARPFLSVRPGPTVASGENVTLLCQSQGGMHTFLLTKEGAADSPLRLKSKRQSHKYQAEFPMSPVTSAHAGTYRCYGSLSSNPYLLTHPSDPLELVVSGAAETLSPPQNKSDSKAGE
Assay: BLI, IgG on AHC sensor, ECD in solution
Measurement name: Kd
Record the result as a number with its unit.

Q: Which Kd value belongs to A-033 (antibody, V domains shown, tested as IgG) VH: QVQLVQSGAEVKKPGSSVKVSCKASGYTFSSHAMSWVRQAPGQGLEWMGGIIPTFKTAVFAQKFQGRVTITADESTSTAYMELSSLRSEDTAVYYCAKGPPVGSSSWYTDWYFDLWGRGTLVTVSS VL: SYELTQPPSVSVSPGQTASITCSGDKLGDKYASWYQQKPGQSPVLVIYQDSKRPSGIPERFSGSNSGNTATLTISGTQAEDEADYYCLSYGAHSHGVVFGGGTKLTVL ?
A: 84.8 nM

Q: Which Kd value belongs to A-025 (antibody, V domains shown, tested as IgG) VH: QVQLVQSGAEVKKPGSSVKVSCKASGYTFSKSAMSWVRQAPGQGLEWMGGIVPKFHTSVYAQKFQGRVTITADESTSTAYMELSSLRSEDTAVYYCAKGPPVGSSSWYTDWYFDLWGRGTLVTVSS VL: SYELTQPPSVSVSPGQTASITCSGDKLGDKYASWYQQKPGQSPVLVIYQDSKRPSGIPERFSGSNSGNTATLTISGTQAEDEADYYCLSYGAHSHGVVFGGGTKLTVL ?
A: 166 nM

Q: Which Kd value belongs to A-034 (antibody, V domains shown, tested as IgG) VH: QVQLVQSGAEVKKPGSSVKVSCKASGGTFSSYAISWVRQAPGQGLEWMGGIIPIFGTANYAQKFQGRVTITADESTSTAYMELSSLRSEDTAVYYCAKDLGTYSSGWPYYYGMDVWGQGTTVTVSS VL: SYELTQPPSVSVSPGQTASITCSGDKLGDKYASWYQQKPGQSPVLVIYQDSKRPSGIPERFSGSNSGNTATLTISGTQAEDEADYYCQLYGHTITVFGGGTKLTVL ?
A: 678 nM
